The reported measurements were obtained from paper PMC5746514.

Target: Kv3.1 potassium channel (Kv3.1b) (Rattus norvegicus, UniProt P25122)
Sequence (P25122 1-585): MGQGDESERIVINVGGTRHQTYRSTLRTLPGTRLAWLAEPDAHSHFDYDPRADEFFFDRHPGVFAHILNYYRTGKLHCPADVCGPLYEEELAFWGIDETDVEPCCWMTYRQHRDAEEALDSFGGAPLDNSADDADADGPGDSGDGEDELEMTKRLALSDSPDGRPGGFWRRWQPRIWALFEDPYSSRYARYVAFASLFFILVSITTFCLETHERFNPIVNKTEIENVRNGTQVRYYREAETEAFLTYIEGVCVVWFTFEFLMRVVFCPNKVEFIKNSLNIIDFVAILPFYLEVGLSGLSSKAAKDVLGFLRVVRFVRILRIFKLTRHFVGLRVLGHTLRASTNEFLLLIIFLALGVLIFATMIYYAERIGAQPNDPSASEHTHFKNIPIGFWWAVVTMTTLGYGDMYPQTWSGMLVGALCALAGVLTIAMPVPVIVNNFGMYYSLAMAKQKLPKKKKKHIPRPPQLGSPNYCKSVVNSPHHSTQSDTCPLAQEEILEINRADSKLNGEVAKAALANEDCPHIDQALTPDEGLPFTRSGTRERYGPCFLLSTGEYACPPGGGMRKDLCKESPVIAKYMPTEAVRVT
Experiment: whole-cell patch clamp of transfected CHO cells
measuredParameter: pIC50
pIC50 here is simply -log10 of the concentration when that concentration is written in mol/L.

Problem: If you can, please state the reported pIC50 value of Fc1ccc([C@@H]2CCNC[C@H]2COc2ccc3c(c2)OCO3)cc1 [paroxetine] .
Result: 5.03
